readout.name: melting point (°C)
Express it in °C; write the number only.

- given.smiles: "Cc1cc(N)nc(CCc2nc3cc(Br)cnc3[nH]2)c1"
  melting point [°C]: 216
- given.smiles: "CC(C)(C)c1nn(-c2ccc([N+](=O)[O-])cc2Cl)c(=O)o1"
  melting point [°C]: 98

Now for a further compound.
Input CCCCc1nc(O)c(CC(=O)OCC)c(O)n1 . Output melting point: 260

---

Measured melting point values are reported for all entries that follow.

In the examples that follow, each entry is paired with its recorded melting point.
- molecule: "CCN(CC)C(=O)c1nc2n(n1)-c1ccc(Cl)cc1C(c1ccccc1)=NC2"
  value: "175 to 177 °C"
- molecule: "COc1ccc(-c2cccc([N+](=O)[O-])c2C)cn1"
  value: "81 to 83 °C"
- molecule: "O=C(Nc1nc(C2CC2)no1)C1c2ccccc2Oc2ccccc21"
  value: "275 °C"

Input CCn1c2ccccc2c2cc([N+](=O)[O-])ccc21 . Output melting point: 118 to 120 °C

Input Cc1c(C(=O)Nc2ccc(OC3CCN(Cc4ccccc4)CC3)c(C#N)c2)cnn1-c1ccc(Cl)cc1 . Output melting point: 194 °C

Input CCOC(=O)C(CC(=O)c1ccc(Oc2ccc(Cl)cc2)cc1)SC(C)=O (stereo not given) . Output melting point: 75.5 to 77 °C

Input C[C@@H]1[C@@H](S(=O)(=O)c2ccccc2)[C@@H]2O[C@@H]2C[C@@H]1O . Output melting point: 148 °C

Input O=Cc1cccc2c1sc1cc3ccccc3cc12 . Output melting point: 202 to 204 °C

Input CC(Oc1ccc(Oc2ccc(C(F)(F)F)cc2)cc1)C(=O)OCC#N (stereo not given) . Output melting point: 53 to 56 °C

Input CC(=O)NNCC1CC2c3cccc4[nH]cc(c34)CC2N(C)C1 (stereo not given) . Output melting point: 213 to 215 °C

---

Measured melting point values are reported for all entries that follow.

- molecule: "NS(=O)(=O)c1ccc(-c2coc(=O)n2-c2ccc(F)cc2)cc1"
  readout.name: "melting point"
  value: "211 to 213 °C"

Input CC(=O)OC1N=C(c2ccccc2F)c2cc(Cl)ccc2-n2c1cnc2C (centres undefined) . Output melting point: 201 to 202 °C

Input COc1nc(C)nc(NC(=O)NS(=O)(=O)c2sccc2C2OCCO2)n1 . Output melting point: 164 to 166 °C

Input NC(=O)COc1ccc(CN2C(=O)C3(COc4cc5c(cc43)CCO5)c3ccccc32)cc1 (centres undefined) . Output melting point: 215 to 216 °C

---

Measured melting point values are reported for all entries that follow.

In the examples that follow, each entry is paired with its recorded melting point.
- compound: "CC1CCn2c(c(-c3ccccc3)c3cccnc3c2=O)C(=O)N(Cc2cc(C(F)(F)F)cc(C(F)(F)F)c2)C1 (racemic)"
  melting point: "257 to 258 °C"
- compound: "COc1ccc(-c2ccc(OC)cc2[N+](=O)[O-])cc1"
  melting point: "122 to 124 °C"
- compound: "COc1ccc(NC(N)=S)c(N2CCOCC2)c1"
  melting point: "175 °C"
- compound: "CNC(=S)NCCCSc1ncccn1"
  melting point: "120 to 121 °C"
- compound: "O=C(O)c1cnc(-c2nnn[nH]2)cc1-c1ccccc1"
  melting point: "> 300 °C"

Input Cc1cccc(-c2nc3cccnn3c2-c2ccnc(NC(=O)N3CCc4ccccc4C3)c2)c1 . Output melting point: 122 to 124 °C

---

Measured melting point values are reported for all entries that follow.

In the examples that follow, each entry is paired with its recorded melting point.
- compound: "CC(C)(O)Cn1c(CO)nc2c(N)nc3cc(-c4cncc(CO)c4)cnc3c21"
  melting point: "149 to 151 °C"
- compound: "CCCCn1c(CCCCN(C(N)=O)c2ccccc2)nc2c(N)nc3ccccc3c21"
  melting point: "222 to 225 °C"
- compound: "N#CC1Cc2ccc(N)cc2C1 (stereo unspecified)"
  melting point: "73 to 76 °C"
- compound: "O=C1Nc2ccccc2OCC1(Cl)Cl"
  melting point: "170 to 174 °C"
- compound: "COC(=O)[C@@]12CO[C@@H](C(C)(C)C)N1C(=O)[C@](Cc1ccccc1)(C(=O)O)C2"
  melting point: "> 133 °C"

Input COc1cccc(OC)c1-c1cc(C(=O)NCC(=O)O)nn1-c1ccc(C(=O)N(C)CCCN(C)C)cc1C(C)C . Output melting point: 160 °C

Input COc1cccc(N2CCC(C(N)=O)CC2)c1 . Output melting point: 153 to 156 °C

Input N#Cc1c(Cl)c(Cl)n(O)c1-c1ccc(Cl)cc1 . Output melting point: 156 °C

---

Measured melting point values are reported for all entries that follow.

In the examples that follow, each entry is paired with its recorded melting point.
- molecule: "COc1cc(COc2nn(-c3ccccc3)cc2/C=C/C(N)=O)ccc1OCc1nc(-c2ccco2)oc1C"
  value: "187 to 188 °C"
- molecule: "CCSCc1cc(O)nc(N(C)C)n1"
  value: "119 to 121 °C"
- molecule: "CC(C)(C)C1=CC(=CC#Cc2ccc(C(=O)O)c(O)c2)C=C(C(C)(C)C)C1=O"
  value: "203 °C"
- molecule: "Cc1ccc(S(=O)(=O)N2[C@@H](c3nnn(C)n3)CC[C@H]2c2ccc(F)cc2)cc1 (racemic)"
  value: "150 °C"
- molecule: "S=C=Nc1ccc(-c2nc(-c3cccs3)no2)cc1"
  value: "161 to 162 °C"
- molecule: "Cn1nc(-c2c(Cl)cccc2Cl)nc1-c1sc(Cl)c(Cl)c1Cl"
  value: "146 to 147 °C"

Input CC#CCOc1ccc(S(=O)(=O)CNCC(C(=O)NO)N2CCN(S(C)(=O)=O)CC2)cc1 (stereo not given) . Output melting point: 86 °C

Input CC(C)c1nn(-c2ccc(F)cn2)cc1CCCO . Output melting point: 78 to 79 °C

Input C=CCN1CC(C)N(C(c2cccc(O)c2)c2cc(C(=O)N(CC)CC)cs2)CC1C (stereo not given) . Output melting point: 108 to 112 °C

Input Cc1cccc(C(=O)Nc2ccc3c(c2)CC(N(C)Cc2ccccn2)C3)c1-c1ccc(C(F)(F)F)cc1 (stereo not given) . Output melting point: 105 to 115 °C

---

readout.name: melting point

In the examples that follow, each entry is paired with its recorded melting point.
- molecule: "FC(F)(F)c1ccc(-c2cc(C(F)(F)F)n3ncc(-c4ccncc4)c3n2)cc1"
  melting point: "261 °C"
- molecule: "CC(C(=O)O)c1cccc(Sc2ccccc2F)c1O (centres undefined)"
  melting point: "116 to 117 °C"

Input COCCN(CCOC)C(=O)c1ccc([N+](=O)[O-])cc1[N+](=O)[O-] . Output melting point: 89 °C

Input O=C(Cc1ccc2ccccc2c1OCC1CO1)NCCO[N+](=O)[O-] (centres undefined) . Output melting point: 67 to 71 °C

Input O=C(Cn1c2c(c3c4c(ccc31)OCC=C4)CCN(Cc1ccccc1)CC2)Nc1ccccc1 . Output melting point: 134 to 136 °C

Input COc1ccc(C(=O)c2c[nH]c(Cc3ccccc3)n2)cc1 . Output melting point: 108 to 110 °C

Input Cc1ccc(C(=O)NC(NC(=S)Nc2cccc([N+](=O)[O-])c2)C(C)(C)C)cc1 (centres undefined) . Output melting point: 181 to 182 °C

Input CC(=O)c1ccccc1-c1noc2ccccc12 . Output melting point: 108 °C

Input CS(=O)(=O)OCCn1c2ccc(O)cc2c2c3c(c(-c4ccccc4)cc21)C(=O)NC3=O . Output melting point: 271 to 276 °C

---

Measured melting point values are reported for all entries that follow.

- compound: "COc1ccccc1C1(C(C)(C)O)CCN(C)CC1"
  melting point: "110 to 111 °C"
- compound: "O=c1[nH]c(SCCCN2CCN(c3ccccn3)CC2)nc2sc3c(c12)CCCC3"
  melting point: "190 to 192 °C"
- compound: "CCOC(=O)C1C(=O)Nc2ccccc2SC1c1ccccc1 (stereo unspecified)"
  melting point: "199 °C"
- compound: "CCOC(=O)COc1c(C(=O)OC)cc(Cl)cc1[N+](=O)[O-]"
  melting point: "68 to 70 °C"
- compound: "COCCCCCCCCCCCC(=O)O"
  melting point: "45 to 47 °C"

Now for a further compound.
Input CC(c1cc2ccccc2o1)N(O)C(N)=O (stereo unspecified) . Output melting point: 147 to 150 °C

---

readout.name: melting point

In the examples that follow, each entry is paired with its recorded melting point.
- molecule: "Cc1noc(NS(=O)(=O)c2ccccc2-c2ccc(C(F)(F)C(C)C)cc2)c1C"
  melting point: "52 to 58 °C"
- molecule: "CS(=O)(=O)c1ccc(-c2nn(CCc3ccccc3)cc2-c2ccc(F)cc2)cc1"
  melting point: "170 to 171 °C"
- molecule: "CC1(C)CCCN(C(=O)[C@H]2C[C@H](C(=O)O)[C@@H](c3ccccc3F)N2C(=O)CNC(=O)Nc2cccc(CC(=O)O)c2)C1 (racemic)"
  melting point: "173 °C"
- molecule: "O=c1cc(N2CCOCC2)oc2ccc(Br)cc12"
  melting point: "147 to 149 °C"

Input Cc1c(/C=C/C(=O)c2ccc3ccccc3c2)ncn1C(c1ccccc1)(c1ccccc1)c1ccccc1 . Output melting point: 194 to 197 °C

Input Cn1nnc(-c2ccc3c(c2)c(C2=CCN(CCc4nnn[nH]4)CC2)cn3-c2ccc(F)cc2)n1 . Output melting point: 131 to 132 °C

Input CC(=O)Nc1nc(-c2ccccc2)c(-c2ccnc(Nc3ccccc3)n2)s1 . Output melting point: > 260 °C

Input O=C1Nc2ncccc2C12COc1cc3c(cc12)OCCO3 (centres undefined) . Output melting point: > 250 °C

Input CN1CCCC(Cn2cc(-c3ccccc3)c(O)n2)C1 (centres undefined) . Output melting point: 132 °C

Input CN(C(=O)OC(C)(C)C)c1sc(-c2cccnc2)nc1Br . Output melting point: 88 to 91 °C

Cited source for all entries: a melting point compilation (Tetko et al.; mined from patent text by program, amines drawn as free bases though some values may be those of a salt)
